- Tested on: SNB-75 CNS
- Assay details: NCI tumour cell line growth inhibition, 48 h
TGI by entry:

{"columns": ["Molecule", "Reported value"],
 "data": [
  ["CC(C)(C)NC(=O)[C@H]1C[C@H]2CCCC[C@H]2CN1C[C@@H](O)[C@H](Cc1ccccc1)NC(=O)[C@H](CC(N)=O)NC(=O)c1ccc2ccccc2n1", "28.4 µM"],
  ["O=c1[nH]c(Nc2cccc(Cl)c2)nc2nc[nH]c12", "> 100 µM"],
  ["COC(=O)C1=C(CS(=O)c2ccccc2[N+](=O)[O-])ON(C)C1c1ccccc1 (centres undefined)", "84.5 µM"],
  ["O=Cc1ccc(-c2cccs2)s1", "> 100 µM"],
  ["CC(=O)Nc1ccc(S(=O)(=O)NNC(=O)c2cccnc2Nc2ccc(Cl)cc2)cc1", "> 100 µM"],
  ["C=C=C(C(=O)OC)S(=O)c1ccc([N+](=O)[O-])cc1[N+](=O)[O-] (centres undefined)", "> 69.7 µM"],
  ["O=C(O)CSc1ncccc1[N+](=O)[O-]", "> 100 µM"],
  ["CCN1CSC(=S)N(CC)C1", "> 100 µM"]
]}

### Prompt Please give the measured TGI for this molecule: "C/C(=N\NC(N)=S)c1nc2ccc(Cl)cc2[nH]1"
### Response 15.6 µM

### Prompt // query TGI value for entry "CC(C)[C@H]1C(=O)N[C@@H](CCCN=C(N)N)C(=O)NCC(=O)N[C@@H](CC(=O)O)C(=O)N[C@H](Cc2ccccc2)C(=O)N1C"
### Response 0.279 µM

### Prompt Please report the recorded TGI for "COC(=O)CCCCCN=Cc1c(O)c(O)c(C(C)C)c2cc(C)c(-c3c(C)cc4c(C(C)C)c(O)c(O)c(C=NCCCCCC(=O)OC)c4c3O)c(O)c12" .
### Response > 32.5 µM

### Prompt Which value of TGI has been reported for "COc1cc(/C=C2/N=C(c3ccccc3)N(C3=NNC4(C(=O)N3)c3ccccc3-c3ccccc34)NC2=O)ccc1O" in the records?
### Response 45.8 µg/mL

### Prompt I have this molecule here, "C#CCn1c(=O)c(C#N)c(O)c2cc3ccccc3nc21" , and I need its recorded TGI.
### Response > 100 µM

### Prompt Report TGI for "COC(=O)[C@@H]1C[C@@]2(C3C=CN(C(=O)C(F)(F)F)C=C3)c3ccccc3N(C(=O)C(F)(F)F)[C@H]2N1C(=O)OC" please.
### Response > 100 µM

---

Measured TGI accompanies every entry in the list below.
- Test system: SNB-75 CNS
- Assay details: NCI tumour cell line growth inhibition, 48 h

Solved cases (3 shown):
{"columns": ["Molecule", "Tested on", "TGI"],
 "data": [
  ["Cc1c2c(OCCCCN3CCN(c4ncccn4)CC3)nn(C)c(=O)c2c(C)n1-c1ccccc1", "SNB-75 CNS", "39.4 µM"],
  ["COc1cccc(-c2cc(=O)c3ccc(C)nc3[nH]2)c1", "SNB-75 CNS", "0.0496 µM"],
  ["COc1cc(Cn2c(-c3nonc3N)nc3ccccc32)ccc1C", "SNB-75 CNS", "1.13 µM"]
]}

### Prompt Looking for the measured TGI of "COC(=O)C1=C(C(=O)OC)SC(=C(Cl)C(=S)Sc2ccccc2N)S1" , can you help?
### Response > 100 µM

### Prompt Record request: TGI value, item "Cc1ccc(SC(=O)N2C(=S)NC(=NC3CCCCC3)C23CCCCC3)cc1"
### Response > 100 µM

### Prompt What value of TGI has been recorded for this entry: OCC1OC(n2cnc3c(/C=C(/O)c4ccccc4)ncnc32)C(O)C1O (stereo not drawn)
### Response > 25.1 µM

### Prompt Could you tell me which TGI is on file for "[N-]=[N+]=Nc1ccc(CNc2cc(=O)[nH]c(=O)[nH]2)cc1" ?
### Response > 100 µM

### Prompt What does the record list as TGI for Cc1c(Cl)cccc1NC(=O)CC1C(=O)Nc2ccccc2S1(=O)=O (stereo not drawn) ?
### Response 32.5 µM

### Prompt Look up TGI for this molecule: "O=c1[nH]nc(Cc2ccccc2)n1-n1cnnc1"
### Response > 100 µM

### Prompt Sample "O=[N+]([O-])c1ccc2c(c1)[O][Sn]([I])([I])[O]2" — what was its TGI?
### Response > 100 µM

---

- System: SK-MEL-5 melanoma
- Assay details: NCI tumour cell line growth inhibition, 48 h
// reported TGI per item

Solved cases below.
{"columns": ["Molecule", "Measure", "Reported value"],
 "data": [
  ["C/C(=N\\NC(N)=S)c1nc2ccc(Cl)cc2[nH]1", "TGI", "22.4 µM"],
  ["COc1ccc(C2C(C#N)=C(S)N(C3OC(CO)C(O)C(O)C3O)C(c3ccccc3)=C2C(C)=O)cc1 (centres undefined)", "TGI", "60.7 µM"],
  ["COc1cc(S(C)(=O)=O)ccc1Nc1nc2ccc(-c3ccc(NC(=O)[C@H](C)c4ccc(F)cc4)cc3)cn2n1", "TGI", "> 100 µM"],
  ["CC(C)OP(=O)(OC(C)C)C(C(C)C)N(C)/C(F)=N/C(F)(F)F (centres undefined)", "TGI", "> 100 µM"],
  ["N#C[C@@H]1C(n2ccc(N)nc2=O)O[C@H](CO)[C@H]1O (some centres undefined)", "TGI", "> 100 µM"]
]}

### Prompt // query TGI value for entry "O=c1[nH]c2cc3[nH]c4ncccc4c(=O)c3cc2[nH]1"
### Response > 10 µM

### Prompt Field request: TGI | item: O=c1[nH]c(N/N=C\C(O)C(O)C(O)CO)nc2ccccc12 (centres undefined)
### Response > 100 µM

### Prompt What does the record list as TGI for NC(=O)c1ccc(C2C3=C(CCCC3=O)OC3=C2C(=O)c2ccccc2C3=O)cc1 (centres undefined) ?
### Response 1.73 µM

### Prompt Consider the molecule O=C1NC2(CN3CCC2CC3)C(=O)N1CN(Cc1ccccc1)c1ccccc1 (centres undefined) and give its measured TGI.
### Response > 100 µM

---

- System: HCC-2998 colon
- Assay details: NCI tumour cell line growth inhibition, 48 h
Measure: TGI

{"columns": ["Compound", "Tested on", "Reported value"],
 "data": [
  ["O=C(N[C@H]1c2ccsc2/C(=N/O)[C@H]1O)C(F)(F)F", "HCC-2998 colon", "> 100 µM"],
  ["CCOC(=O)c1cc(/C=C/C(C)=C/C(=O)OC)n(C)c1C", "HCC-2998 colon", "> 100 µM"],
  ["CNC(=S)N/N=C/c1ccc([N+](=O)[O-])s1", "HCC-2998 colon", "> 10 µM"],
  ["Nc1nc(CCC(=O)Nc2cccc(C(F)(F)F)c2)cc(-c2ccc3ccccc3c2)n1", "HCC-2998 colon", "> 100 µM"],
  ["COc1cc(Cn2c(-c3nonc3N)nc3ccccc32)ccc1C", "HCC-2998 colon", "> 100 µM"]
]}

Now look at this one.
### Prompt Field request: TGI | item: BrC1(Br)C2/C=C\CCCCC21 (stereo unspecified)
### Response > 100 µM

---

- Test system: NCI-H226 lung
- Assay details: NCI tumour cell line growth inhibition, 48 h
Measure: TGI

### Prompt Any idea what TGI came out for "Cc1cc(=O)oc2cc(O)c(CN(C)CC(=O)O)cc12" on NCI-H226 lung?
### Response > 100 µM

### Prompt Write down the reported TGI of C=C1C(=O)OC2/C=C(\C=O)CC/C=C(\C)C(O)C[C@@H]12 (stereo partly specified) , test system: NCI-H226 lung.
### Response 43.9 µM

### Prompt Missing value: TGI, NCI-H226 lung, entry Cc1c(Cl)cccc1NC(=O)CC1C(=O)Nc2ccccc2S1(=O)=O (stereo unspecified) . Fill in?
### Response 35.1 µM

### Prompt # value lookup — system NCI-H226 lung, readout TGI, item COc1ccc(C2C(C#N)=C(S)N(C3OC(CO)C(O)C(O)C3O)C(c3ccccc3)=C2C(C)=O)cc1 (stereo unspecified)
### Response > 100 µM

### Prompt Lab note: need TGI for Nc1ccc2[nH]c(C(=O)N3CC(CCl)c4c3cc(N)c3ccccc43)cc2c1 (stereo unspecified) on NCI-H226 lung, anyone have it?
### Response < 0.01 µM

### Prompt Kindly state the measured TGI obtained for "Cn1c(=O)c2c(ncn2CN2CCN(Cn3cnc4c3c(=O)n(C)c(=O)n4C)CC2)n(C)c1=O" with NCI-H226 lung.
### Response > 100 µM

### Prompt // fetch NCI-H226 lung TGI for "COc1cc(Br)c(C=Nc2cccc3ccc(OS(=O)(=O)c4cccc([N+](=O)[O-])c4)cc23)cc1OC"
### Response 84.1 µM

### Prompt Fill in the recorded TGI for this compound, with NCI-H226 lung as test system: CN1C(=O)C(Cl)(C(Cl)(Cl)S(=O)(=O)O)C(=O)c2ccccc21 (stereo unspecified)
### Response > 100 µM

### Prompt For the record BrC1(Br)C2/C=C\CCCCC21 (stereo unspecified) , what value of TGI is listed for NCI-H226 lung?
### Response > 100 µM

### Prompt What value of TGI on NCI-H226 lung does "COC(=O)[C@@]12CCCC(=O)[C@@H]1[C@H]1CCCC[C@H]12" have?
### Response > 100 µM

### Prompt Param readout= TGI; system= NCI-H226 lung; entry= "O=[N+]([O-])c1ccc2c(c1)[O][Sn][O]2" ; returns value.
### Response > 150 µg/mL

### Prompt Query the reported TGI for NCI-H226 lung; item: "Cc1nc(C(N)=S)sc1C(=O)C/C(=N/N)C(=O)Nc1cccc(Cl)c1C"
### Response > 100 µM

### Prompt So what TGI did "COc1cc(S(C)(=O)=O)ccc1Nc1nc2ccc(-c3ccc(NC(=O)[C@H](C)c4ccc(F)cc4)cc3)cn2n1" get with NCI-H226 lung?
### Response > 100 µM

### Prompt Give TGI (NCI-H226 lung) of the following compound: CC(C)OP(=O)(OC(C)C)C(C(C)C)N(C)/C(F)=N/C(F)(F)F (stereo unspecified)
### Response > 100 µM

### Prompt What measured TGI is associated with CCC(c1cccc(O)c1)C(CC)c1cccc(O)c1 (stereo unspecified) on NCI-H226 lung?
### Response 26.3 µM

### Prompt Recall the recorded TGI for "NC(N)=NS(=O)(=O)c1ccc(NC(=O)c2ccc3nc4ccccc4c(Nc4ccc(S(N)(=O)=O)cc4)c3c2)cc1" with NCI-H226 lung and state it.
### Response > 100 µM
